# test details: Solubility in distilled water
# Format: physicochemical
# details: water, pH 2.0
outcome measure: solubility

Entry CCO[C@H](COc1ccc(C(F)(F)F)cc1)CSc1ccc(OCC(=O)O)c(C)c1 [Compound of formula (la)] , solubility reported as < 2 µg/mL

* * *

# test details: Solubility in distilled water
# Type: physicochemical
# details: pH 7.4, water
outcome measure: solubility

Entry `CCO[C@H](COc1ccc(C(F)(F)F)cc1)CSc1ccc(OCC(=O)O)c(C)c1` , solubility reported as ~1000 µg/mL
